Attribution: the Human Domainome abundance scans (Beltran et al. 2025)

B1: POU domain, class 2, transcription factor 2, residues 200 to 269; numbered along this chain, P09086 (parent)
chain: LEELEQFARTFKQRRIKLGFTQGDVGLAMGKLYGNDFSQTTISRFEALNLSFKNMCKLKPLLEKWLNDAE

Variants of: B1
Experiment: abundance fitness (aPCA) (normalised: wild type 0, dead -1); higher = more abundant; growth selection in yeast, the domain comes from the species named
Details: Homo sapiens
Answer each item with its documented abundance fitness.
Write the value as a bare number.

Looking up LEELEQFARTFKQRRIKLGFTQGDVGLAMGKLYGNDFSQTTISKFEALNLSFKNMCKLKPLLEKWLNDAE [R44K] , I found its abundance fitness recorded as 0.033

Consider LEELEQFARTFKQRRIKLGFFQGDVGLAMGKLYGNDFSQTTISRFEALNLSFKNMCKLKPLLEKWLNDAE [T21F] . Its measured abundance fitness is -0.625

variant LEELEQFARTFKQRRIKLGFTQGDVGLAMGKLPGNDFSQTTISRFEALNLSFKNMCKLKPLLEKWLNDAE [Y33P] , abundance fitness observed: -0.068

The measured abundance fitness associated with LEELEQFARTFKQRRIKLGFTQGDVGLAMGKLYGNDFSQTTISRFEALNLSFKNFCKLKPLLEKWLNDAE [M55F] reads -0.127

GET /value?item= LEELEQFARTFKQRRIKLGFTQGDVGLAMGKLYGNDFSQTTISRFEALNLSFHNMCKLKPLLEKWLNDAE [K53H] &field=abundance fitness returns 0.016

Record LEELEQFARTFKQRRIKLGFTQGDVGLAMGKLYQNDFSQTTISRFEALNLSFKNMCKLKPLLEKWLNDAE [G34Q] . Reported abundance fitness: 0.087

# abundance fitness (variant: LEELEQFARTFKQRRIKLGATQGDVGLAMGKLYGNDFSQTTISRFEALNLSFKNMCKLKPLLEKWLNDAE [F20A] ) is -0.006

For LEELEQHARTFKQRRIKLGFTQGDVGLAMGKLYGNDFSQTTISRFEALNLSFKNMCKLKPLLEKWLNDAE [F7H] the variant record lists abundance fitness as -0.416

Just so you know, measured abundance fitness for LEELEQFARTFHQRRIKLGFTQGDVGLAMGKLYGNDFSQTTISRFEALNLSFKNMCKLKPLLEKWLNDAE [K12H] came out at -0.127

Value of abundance fitness reported for the variant LEELEQFARTFKQRRIKLGFTQGDVGLAMGKLYGNDFKQTTISRFEALNLSFKNMCKLKPLLEKWLNDAE [S38K] is -0.055

So, LEELEQFARTFKQRRIKLGFTQGDVGLAMGFLYGNDFSQTTISRFEALNLSFKNMCKLKPLLEKWLNDAE [K31F] ? Its abundance fitness was -0.336

LEELEQFARTFKQRRIKLGFTQGEVGLAMGKLYGNDFSQTTISRFEALNLSFKNMCKLKPLLEKWLNDAE [D24E] has a reported abundance fitness of -0.093

Please fill in: abundance fitness reported for LEELEQFARTFKQRRIKLGKTQGDVGLAMGKLYGNDFSQTTISRFEALNLSFKNMCKLKPLLEKWLNDAE [F20K] = 0.005

Recorded abundance fitness (variant LEELEQFARTFKTRRIKLGFTQGDVGLAMGKLYGNDFSQTTISRFEALNLSFKNMCKLKPLLEKWLNDAE [Q13T] ): 0.001

Lab book: abundance fitness of LEELEQFARTFKQRRIKLGFTQGDVGLAMGKLYGNDFSQKTISRFEALNLSFKNMCKLKPLLEKWLNDAE [T40K] noted as 0.232

The measured abundance fitness associated with LEELEQFARTFKQRRIKLGFTQGDVGLAMGKLYGNDFSQTTISRFVALNLSFKNMCKLKPLLEKWLNDAE [E46V] reads -0.79

Recorded result, LEELEQFARTFKQWRIKLGFTQGDVGLAMGKLYGNDFSQTTISRFEALNLSFKNMCKLKPLLEKWLNDAE [R14W] , abundance fitness: -0.271

Reported abundance fitness ( LEELEQFARTFKQRRIKLGFTQGDVGLAMGKLYGNDFSQTTISRFENLNLSFKNMCKLKPLLEKWLNDAE [A47N] ) = -0.019

Form: variant = LEELEQFARTFKQRRIMLGFTQGDVGLAMGKLYGNDFSQTTISRFEALNLSFKNMCKLKPLLEKWLNDAE [K17M] ; abundance fitness = 0.001

response.value for LEELEQFARTFKQRRIKLGFTQGDVGLAMGKHYGNDFSQTTISRFEALNLSFKNMCKLKPLLEKWLNDAE [L32H] (field: abundance fitness) = -0.126

Note to self: abundance fitness recorded for LEELEQFARTFKQRRIKLGFTQGDVGLAMGKLYCNDFSQTTISRFEALNLSFKNMCKLKPLLEKWLNDAE [G34C] was -0.143

variant LEELEQFARTFKQRRIKLGFTQGDVGLAMGKLYGNDFSQTTISRFEALNLSFKNMCKLKMLLEKWLNDAE [P60M] , abundance fitness observed: -0.207

Lookup result for LEELEQFARTIKQRRIKLGFTQGDVGLAMGKLYGNDFSQTTISRFEALNLSFKNMCKLKPLLEKWLNDAE [F11I] ; measured abundance fitness: -0.254

variant LEELEQFWRTFKQRRIKLGFTQGDVGLAMGKLYGNDFSQTTISRFEALNLSFKNMCKLKPLLEKWLNDAE [A8W] , abundance fitness observed: -0.452

response.value for LEELEQFARTFKQRRIKLGFTQGDVGLAMGKLYGNDFSQTTISRFEALNLSFPNMCKLKPLLEKWLNDAE [K53P] (field: abundance fitness) = -0.055

abundance fitness measured on LEELEQFARTFKQRRIKLGFTQGDVGLAMGKLYGNDFSQTTIARFEALNLSFKNMCKLKPLLEKWLNDAE [S43A] = 0.005

# abundance fitness of LEELEQFARTRKQRRIKLGFTQGDVGLAMGKLYGNDFSQTTISRFEALNLSFKNMCKLKPLLEKWLNDAE [F11R] = -1.01

# variant LEELEQFARTFKQRRIKLGFTQGDVGLAMGKLYGNDFSQTTISRFEALHLSFKNMCKLKPLLEKWLNDAE [N49H] ; its abundance fitness = -0.018

LEELEQFARTFKQRRIKLGFTQGDVGLAMGKLYGNDFSQTWISRFEALNLSFKNMCKLKPLLEKWLNDAE [T41W] yielded abundance fitness of -0.014

Form field abundance fitness, entry LEELEQPARTFKQRRIKLGFTQGDVGLAMGKLYGNDFSQTTISRFEALNLSFKNMCKLKPLLEKWLNDAE [F7P] : -1.13

Notebook: LEELEQFARTFKQRRIKLGFTQGDVGLAMGKLYGNDFSQTTISRFEALNLSFKNMCKLKPLLEWWLNDAE [K64W] , abundance fitness read as -0.257

abundance fitness for LEELEQFARTFKQRRIKLGFTQGDVGLAMGKLYGNSFSQTTISRFEALNLSFKNMCKLKPLLEKWLNDAE [D36S] is -0.05

Input LEELEQFARTFKQRRIKLGFTQGDVGLAMGKLYGNDFSQTTISRFEALNLSFKNMCELKPLLEKWLNDAE [K57E] . Output abundance fitness: -0.05

The recorded abundance fitness for entry LEELEQFARTFKQRRIKFGFTQGDVGLAMGKLYGNDFSQTTISRFEALNLSFKNMCKLKPLLEKWLNDAE [L18F] equals -0.035

Recorded abundance fitness (variant LEELEQFARTFKQRRIKLQFTQGDVGLAMGKLYGNDFSQTTISRFEALNLSFKNMCKLKPLLEKWLNDAE [G19Q] ): -0.498

Given item LEELEQFARTFKQRRIKLTFTQGDVGLAMGKLYGNDFSQTTISRFEALNLSFKNMCKLKPLLEKWLNDAE [G19T] , the value recorded as its abundance fitness is -0.521

// field: abundance fitness; key: LEELEQFARTFKQRRIKLGFTQGDVGLAMGKLYGNDFSQTTISCFEALNLSFKNMCKLKPLLEKWLNDAE [R44C] ; value = -0.057

So for LEELEQFARTFKQRRIKLGFTIGDVGLAMGKLYGNDFSQTTISRFEALNLSFKNMCKLKPLLEKWLNDAE [Q22I] , the logged abundance fitness turned out to be -0.12

Lab book: abundance fitness of LEELEQFARTFKQRRIKLGFTQGDVGLAMGKLYGNDFSQTTISRFEVLNLSFKNMCKLKPLLEKWLNDAE [A47V] noted as -0.125

abundance fitness reported for this variant LEELEQFARTFKQRRIKLGFTQGDVGLAMGKLYGNDFSQTTISRFEALNLSFKNMCKLKPPLEKWLNDAE [L61P] : -0.027

Entry LEELEQFARTFKQRRIKLGFTQGDVGLAMGKLYGNDFSQTMISRFEALNLSFKNMCKLKPLLEKWLNDAE [T41M] — recorded abundance fitness = 0.04

Measured abundance fitness of LEELEQFARTFKQRRIKLGFTQGDVGLAMGKLYGNDFSQTTISRFEALNLSFKNWCKLKPLLEKWLNDAE [M55W] : -0.24

Per the record, LEWLEQFARTFKQRRIKLGFTQGDVGLAMGKLYGNDFSQTTISRFEALNLSFKNMCKLKPLLEKWLNDAE [E3W] has abundance fitness of -0.263

Notebook: LDELEQFARTFKQRRIKLGFTQGDVGLAMGKLYGNDFSQTTISRFEALNLSFKNMCKLKPLLEKWLNDAE [E2D] , abundance fitness read as 0.054

Entry under test: LEELEQFARTFIQRRIKLGFTQGDVGLAMGKLYGNDFSQTTISRFEALNLSFKNMCKLKPLLEKWLNDAE [K12I] . Its abundance fitness was 0.02

Documented abundance fitness of LEELEQFARTFKQRRIKLGFTQGDVGLAMGKLYGNIFSQTTISRFEALNLSFKNMCKLKPLLEKWLNDAE [D36I] : -0.057

abundance fitness recorded for this variant, MEELEQFARTFKQRRIKLGFTQGDVGLAMGKLYGNDFSQTTISRFEALNLSFKNMCKLKPLLEKWLNDAE [L1M] , is -0.081

Form field abundance fitness, entry LEELEQFARTFKQRRIKLGFTQGDVGLAMGKLYGNDFSQTTISRFEAPNLSFKNMCKLKPLLEKWLNDAE [L48P] : -0.472

Please fill in: abundance fitness reported for LEELEQFARTFKQRRIKLGFTQGDVGLAMGKLYGNDFAQTTISRFEALNLSFKNMCKLKPLLEKWLNDAE [S38A] = -0.014

The variant listed as LEELEQFARTFKQRRIKLGFTQGDVGLAMGKLYGNDFSQTTISRQEALNLSFKNMCKLKPLLEKWLNDAE [F45Q] shows abundance fitness equal to -0.977

abundance fitness for LEELEQFARTFKQRRIKLGFTQGDVGLAMGKLYGNDFSQTTISRFEALNLSFKCMCKLKPLLEKWLNDAE [N54C] is -0.193

The reported abundance fitness of the variant LEEHEQFARTFKQRRIKLGFTQGDVGLAMGKLYGNDFSQTTISRFEALNLSFKNMCKLKPLLEKWLNDAE [L4H] was 0.052

abundance fitness measured on LEELEQFARTFKQRRIKLGFTQGDVGLAMGKLYGNDFSQTTISRFEALNLRFKNMCKLKPLLEKWLNDAE [S51R] = -0.102

Recorded abundance fitness (variant LEELEQFARTFKQRRIKLGFTQGDVALAMGKLYGNDFSQTTISRFEALNLSFKNMCKLKPLLEKWLNDAE [G26A] ): -0.067

For LEELEQFARTFKQRRIKLGFTQGDVGLAMGKLYGNDFSQTTISRDEALNLSFKNMCKLKPLLEKWLNDAE [F45D] the variant record lists abundance fitness as -0.916

Lab note: LEELEQFARTFKQRRIGLGFTQGDVGLAMGKLYGNDFSQTTISRFEALNLSFKNMCKLKPLLEKWLNDAE [K17G] gave abundance fitness of -0.027

Summary for this variant, LEELEQFARTFKQRRIKLGFTQGDVGLAMGKLYGNDFSQTTISRFEALNLSFKNMCKLKPLLEKWMNDAE [L66M] : abundance fitness is -0.027

Record LEELEQFARTFKQRRIKLGFTQGDVGLAMGKLYGNDFSQTTISRFEALNLSFKLMCKLKPLLEKWLNDAE [N54L] , field abundance fitness: -0.097

Consider LEELEQFARTFKQRRIYLGFTQGDVGLAMGKLYGNDFSQTTISRFEALNLSFKNMCKLKPLLEKWLNDAE [K17Y] . Its measured abundance fitness is -0.121

What the record says about LEELEQFARTFKQRRYKLGFTQGDVGLAMGKLYGNDFSQTTISRFEALNLSFKNMCKLKPLLEKWLNDAE [I16Y] : abundance fitness is -0.194
